test system: BT20; assay: normalised growth rate inhibition (GR value) relative to DMSO control (GR (1 = untreated growth, 0 = cytostasis, <0 = cytotoxic)); higher = less growth inhibition; details: 0.04 µM; 72 h
normalised growth rate inhibition values by entry

- CHEMICAL_SMILES: "Cc1ccc2nc(NCCN)c3ncc(C)n3c2c1"
  normalised growth rate inhibition: 1.01
- CHEMICAL_SMILES: "COc1cc(OC)cc(-c2ccc3ncc4ccc(=O)n(-c5ccc(N6CCNCC6)c(C(F)(F)F)c5)c4c3c2)c1"
  normalised growth rate inhibition: 0.797
- CHEMICAL_SMILES: "CCN(CC)CCCCNc1ncc2cc(-c3cc(OC)cc(OC)c3)c(NC(=O)NC(C)(C)C)nc2n1"
  normalised growth rate inhibition: 1.1
- CHEMICAL_SMILES: "COc1cc2c(Oc3ccc(NC(=O)C4(C(=O)Nc5ccc(F)cc5)CC4)cc3F)ccnc2cc1OCCCN1CCOCC1"
  normalised growth rate inhibition: 1.02
- CHEMICAL_SMILES: "O=C(NOC[C@H](O)CO)c1ccc(F)c(F)c1Nc1ccc(I)cc1F"
  normalised growth rate inhibition: 0.907
- CHEMICAL_SMILES: "CS(=O)(=O)CCNCc1ccc(-c2ccc3ncnc(Nc4ccc(OCc5cccc(F)c5)c(Cl)c4)c3c2)o1"
  normalised growth rate inhibition: 0.857
- CHEMICAL_SMILES: "Cc1[nH]c(/C=C2\\C(=O)Nc3ccc(S(=O)(=O)Cc4c(Cl)cccc4Cl)cc32)c(C)c1C(=O)N1CCC[C@@H]1CN1CCCC1"
  normalised growth rate inhibition: 1.02
- CHEMICAL_SMILES: "N#CC[C@H](C1CCCC1)n1cc(-c2ncnc3[nH]ccc23)cn1"
  normalised growth rate inhibition: 0.973
- CHEMICAL_SMILES: "FC(F)c1nc2ccccc2n1-c1nc(N2CCOCC2)nc(N2CCOCC2)n1"
  normalised growth rate inhibition: 0.971
- CHEMICAL_SMILES: "CCC(=O)N1CCN(c2ccc(-n3c(=O)ccc4cnc5ccc(-c6cnc7ccccc7c6)cc5c43)cc2C(F)(F)F)CC1"
  normalised growth rate inhibition: 0.271
- CHEMICAL_SMILES: "c1ccc2c(-c3cnn4cc(-c5ccc(N6CCNCC6)cc5)cnc34)ccnc2c1"
  normalised growth rate inhibition: 0.994
- CHEMICAL_SMILES: "NC(=O)Nc1cc(-c2cccc(F)c2)sc1C(=O)N[C@H]1CCCNC1"
  normalised growth rate inhibition: 1.05
- CHEMICAL_SMILES: "CN1CCN(CCOc2cc(OC3CCOCC3)c3c(Nc4c(Cl)ccc5c4OCO5)ncnc3c2)CC1"
  normalised growth rate inhibition: 0.993
- CHEMICAL_SMILES: "N#CCNC(=O)c1ccc(-c2ccnc(Nc3ccc(N4CCOCC4)cc3)n2)cc1"
  normalised growth rate inhibition: 0.926
- CHEMICAL_SMILES: "O=C(NOCC1CC1)c1ccc(F)c(F)c1Nc1ccc(I)cc1Cl"
  normalised growth rate inhibition: 1.05
- CHEMICAL_SMILES: "C=CC(=O)Nc1cc2c(Nc3ccc(F)c(Cl)c3)ncnc2cc1OCCCN1CCOCC1"
  normalised growth rate inhibition: 0.896
- CHEMICAL_SMILES: "CN(c1ncccc1CNc1nc(Nc2ccc3c(c2)CC(=O)N3)ncc1C(F)(F)F)S(C)(=O)=O"
  normalised growth rate inhibition: 0.921
- CHEMICAL_SMILES: "CC(C)CC(=O)Nc1n[nH]c2c1CN(C(=O)C1CCN(C)CC1)C2(C)C"
  normalised growth rate inhibition: 0.52
